Source: patent US20210238276A1

# reported % of binding to wild type GLUT4; entries follow
- measured.on: T1, hsGLUT4 E345Q (human, UniProt P14672 1-509)
- T1 construct: also called inward-open lock mutant
- T1 sequence: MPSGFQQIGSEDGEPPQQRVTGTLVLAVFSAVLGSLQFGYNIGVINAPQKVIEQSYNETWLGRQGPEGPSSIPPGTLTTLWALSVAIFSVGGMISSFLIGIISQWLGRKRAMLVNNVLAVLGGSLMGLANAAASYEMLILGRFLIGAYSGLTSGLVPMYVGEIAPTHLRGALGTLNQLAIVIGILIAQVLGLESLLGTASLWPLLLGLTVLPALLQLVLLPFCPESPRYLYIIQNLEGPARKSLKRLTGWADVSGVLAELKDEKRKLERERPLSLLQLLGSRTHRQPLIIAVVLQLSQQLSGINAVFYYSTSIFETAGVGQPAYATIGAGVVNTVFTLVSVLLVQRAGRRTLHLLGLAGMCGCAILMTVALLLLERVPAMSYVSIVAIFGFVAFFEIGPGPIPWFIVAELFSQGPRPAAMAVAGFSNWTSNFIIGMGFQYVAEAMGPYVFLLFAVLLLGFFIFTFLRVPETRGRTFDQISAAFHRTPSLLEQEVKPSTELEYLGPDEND
- assay.details: flow cytometry, mutant in HEK-293T
Enter your answer as a number in %; do not include the unit.

Look over these answered cases.
INSERT INTO measurements (binder, measured_number) VALUES
  ('AB108 (Fc fusion, Bivalent scFv-Fc; also called MAb AB108; not shown: Fc fragment of human IgG1, cloned in frame with the scFv) scFv: ALTQPSSVSANLGGTVKITCSGSSGSYGWYQQKAPGSAPVTLIYRNDKRPSDIPSRFSGSESGSTGTLTITGVQAEDEAVYFCGGYDSSAGYAAFGAGTTLTVLGQSSRSSGGGGSSGGGGSAVTLDESGGGLQTPGGALSLVCKASGFTFSSHGMGWVRQAPGKGLEWVGSISTGRYTFYAPAVKGRATISRDNGQSTLRLQLNNLRAEDTGTYYCTKCAGLNGCGGGEIDAWGHGTEVIVSS', 78),
  ('AB111 (Fc fusion, Bivalent scFv-Fc; also called MAb AB111; not shown: Fc fragment of human IgG1, cloned in frame with the scFv) scFv: ALTQPSSVSANPGETVKITCSGSGSWYGWFQQKSPGSAPVTVIYSNDKRPSDIPSRFSGSKSGSTSTLTITGVQVEDEAVYYCGNWDIFGAGTTLTVLGQSSRSSGGGGSSGGGGSAVTLDESGGGLQTPGGALSLVCKASGFTFSSHGMGWVRQAPGKGLEWVASISTGRYTFYAPAVKGRATISRDNGQSTVRLQLNNLRAEDTATYYCTKCAGLNGCGGGEIDAWGHGTEVIVSS', 125),
  ('AB101 (scFv, Chicken-derived clone used as a control; the four lead clones were tested as scFv-human IgG1 Fc; also called MAb AB101) scFv: ALTQPSSVSANPGETVKITCSGSSNSYGWYQQKSPGSAPVTVIYYNDKRPSDIPSRFSGSKSDSTHTLTITGVRAEDEAVYFCGSYDSTYVGIFGAGTTLTVLGQSSRSSGGGGSSGGGGSAVTLDESGGGLQTPGGTLSLVCKASGFTFSSNAMGWVRQAPGKGLEWVAGISSDGRYTKYGSAVKGRATISRDNGQSTVRLQLNNLRAEDTGTYFCAKAFGNNYRRIYAGQIDAWGHGTEVIVSS', 96);

Next binder, % of binding to wild type GLUT4 to be filled in.
Sample AB105 (Fc fusion, Bivalent scFv-Fc; also called MAb AB105; not shown: Fc fragment of human IgG1, cloned in frame with the scFv) scFv: ALTQPSSVSANPGETVEITCSGDSSYYGWYQQKSPGSAPVTVIYANTNRPSDIPSRFSGSASGSTATLTITGVQAEDEAVYYCGSADSTYAGIFGAGTTLTVLGQSSRSSGGGGSSGGGGSAVTLDESGGGLQTPGGALSLICKASGFTFSSYTMNWVRQAPGKGLEWVGVISNSGRTTNYGAAVQGRATISRDNGQSTVRLQLNNLRAEDTGTYYCAKSSASASCAWWAGRSYPCSANRIDAWGHGTEVIVSS — what was its % of binding to wild type GLUT4?
16
